System: freshwater green alga (Selenastrum capricornutum)
PROTOCOL_DESCRIPTION: Inhibition of propagation of freshwater green alga (Example 4)
Type: cell-based
MEASUREMENT_CONDITIONS: 50ppb, after 72 hours, cell number vs non-treated lot, read-out: Propagation inhibiting rate(%) 50ppb
REPORTED_METRIC: inhibition at 0.05 ppm (%)
# value in %; strip the unit string

Inquiry: Returns the measured inhibition at 0.05 ppm for the input compound. Input: CC(c1ccccc1Cl)N(C)Cc1ccc(C(C)(C)C)cc1 (stereo not shown) [Compound 9]
Reply text: 59

Inquiry: Returns the measured inhibition at 0.05 ppm for the input compound. Input: CN(Cc1ccc(C(C)(C)C)cc1)Cc1cccc(Cl)c1 [Compound 10]
Reply text: 87

Inquiry: Returns the measured inhibition at 0.05 ppm for the input compound. Input: CN(Cc1cc(Cl)cc(Cl)c1)Cc1cccc2ccccc12 [Compound 40]
Reply text: 61

Inquiry: Returns the measured inhibition at 0.05 ppm for the input compound. Input: CN(Cc1ccc(Cl)cc1)Cc1cccc2ccccc12 [Compound 31]
Reply text: 88

Inquiry: Returns the measured inhibition at 0.05 ppm for the input compound. Input: Cc1cccc(CN(C)Cc2ccc(C(C)(C)C)cc2)c1 [Compound 11]
Reply text: 70

Inquiry: Returns the measured inhibition at 0.05 ppm for the input compound. Input: CC(C)c1ccc(CN(C)Cc2cccc3ccccc23)cc1 [Compound 29]
Reply text: 95

Inquiry: Returns the measured inhibition at 0.05 ppm for the input compound. Input: Cc1cc(C)cc(CN(C)Cc2ccc(C(C)(C)C)cc2)c1 [Compound 2]
Reply text: 84

Inquiry: Returns the measured inhibition at 0.05 ppm for the input compound. Input: Cc1cccc(CN(C)Cc2ccc(C(C)(C)C)cc2)c1C [Compound 4]
Reply text: 64

Inquiry: Returns the measured inhibition at 0.05 ppm for the input compound. Input: Cc1ccc(CN(C)Cc2cccc3ccccc23)cc1C [Compound 41]
Reply text: 66

Inquiry: Returns the measured inhibition at 0.05 ppm for the input compound. Input: CC(C)Oc1ccc(CN(C)Cc2cccc3ccccc23)cc1 [Compound 47]
Reply text: 63

Inquiry: Returns the measured inhibition at 0.05 ppm for the input compound. Input: Cc1ccc(CN(C)Cc2ccc(C(C)(C)C)cc2)cc1C [Compound 23]
Reply text: 65

Inquiry: Returns the measured inhibition at 0.05 ppm for the input compound. Input: CN(Cc1ccc(C(C)(C)C)cc1)Cc1cc(Cl)cc(Cl)c1 [Compound 1]
Reply text: 79

Inquiry: Returns the measured inhibition at 0.05 ppm for the input compound. Input: CN(Cc1ccc(C(C)(C)CCl)cc1)Cc1cccc2ccccc12 [Compound 35]
Reply text: 75

====

Assign inhibition at 0.5 ppm to each entry below.
Test system: freshwater green alga (Scenedesmus pannonicus)
PROTOCOL_DESCRIPTION: Inhibition of propagation of freshwater algae (Example 6)
Format: cell-based
MEASUREMENT_CONDITIONS: Desmodesmus pannonicus, 500ppb, 168hr, read-out: Propagation inhibiting rate (%) 500ppb 168hr
# value in %; strip the unit string

Inquiry: Returns the measured inhibition at 0.5 ppm for the input compound. Input: CN(Cc1ccc(C(C)(C)C)cc1)C1CCc2ccccc21 (stereo not drawn)
Reply text: 99

Inquiry: Returns the measured inhibition at 0.5 ppm for the input compound. Input: Cc1ccc(C)c(CN(C)Cc2ccc(C(C)(C)C)cc2)c1
Reply text: 86

Inquiry: Returns the measured inhibition at 0.5 ppm for the input compound. Input: Cc1cc(C)cc(CN(C)Cc2ccc(C(C)(C)C)cc2)c1
Reply text: 99

====

Tested on: freshwater green alga (Selenastrum capricornutum)
PROTOCOL_DESCRIPTION: Inhibition of propagation of freshwater green alga (Example 4)
Format: cell-based
MEASUREMENT_CONDITIONS: 500ppb, after 72 hours, cell number vs non-treated lot, read-out: Propagation inhibiting rate(%) 500ppb
REPORTED_METRIC: inhibition at 0.5 ppm (%)
# value in %; strip the unit string

Inquiry: Record Cc1ccc(CN(C)Cc2ccc(C(C)(C)C)cc2)cc1C : what is its inhibition at 0.5 ppm with freshwater green alga (Selenastrum capricornutum)?
Reply text: 97

Inquiry: Record Cc1ccc(C)c(CN(C)Cc2ccc(C(C)(C)C)cc2)c1 : what is its inhibition at 0.5 ppm with freshwater green alga (Selenastrum capricornutum)?
Reply text: 90

Inquiry: Record CN(Cc1ccc(Cl)c(Cl)c1)C1CCc2ccccc21 (stereo not shown) : what is its inhibition at 0.5 ppm with freshwater green alga (Selenastrum capricornutum)?
Reply text: 95

Inquiry: Record CN(Cc1ccc(C#N)cc1)Cc1cccc2ccccc12 : what is its inhibition at 0.5 ppm with freshwater green alga (Selenastrum capricornutum)?
Reply text: 96

Inquiry: Record CC(C)Cc1ccc(CN(C)Cc2cccc3ccccc23)cc1 : what is its inhibition at 0.5 ppm with freshwater green alga (Selenastrum capricornutum)?
Reply text: 86

Inquiry: Record Cc1cccc(C)c1CN(C)Cc1ccc(C(C)(C)C)cc1 : what is its inhibition at 0.5 ppm with freshwater green alga (Selenastrum capricornutum)?
Reply text: 75

Inquiry: Record CN(Cc1ccc(Cl)c(Cl)c1)Cc1cccc2ccccc12 : what is its inhibition at 0.5 ppm with freshwater green alga (Selenastrum capricornutum)?
Reply text: 69

Inquiry: Record CC(C)(C)c1ccc(CNCc2cccc(Cl)c2Cl)cc1 : what is its inhibition at 0.5 ppm with freshwater green alga (Selenastrum capricornutum)?
Reply text: 90

Inquiry: Record Cc1cc(C)c(CN(C)Cc2ccc(C(C)(C)C)cc2)c(C)c1 : what is its inhibition at 0.5 ppm with freshwater green alga (Selenastrum capricornutum)?
Reply text: 63

Inquiry: Record CCCCCCc1ccc(CN(C)Cc2cccc3ccccc23)cc1 : what is its inhibition at 0.5 ppm with freshwater green alga (Selenastrum capricornutum)?
Reply text: 83

Inquiry: Record COc1ccc(CN(C)Cc2cccc3ccccc23)cc1 : what is its inhibition at 0.5 ppm with freshwater green alga (Selenastrum capricornutum)?
Reply text: 75

Inquiry: Record CN(Cc1ccc(C(C)(C)C)cc1)Cc1cccc(C(F)(F)F)c1 : what is its inhibition at 0.5 ppm with freshwater green alga (Selenastrum capricornutum)?
Reply text: 90

Inquiry: Record CN(Cc1ccc(F)c(F)c1)Cc1cccc2ccccc12 : what is its inhibition at 0.5 ppm with freshwater green alga (Selenastrum capricornutum)?
Reply text: 87

Inquiry: Record Cc1cccc(CN(C)Cc2cccc3ccccc23)c1 : what is its inhibition at 0.5 ppm with freshwater green alga (Selenastrum capricornutum)?
Reply text: 93

Inquiry: Record CN(Cc1ccc(C(C)(C)C)cc1)Cc1cccc(Cl)c1Cl : what is its inhibition at 0.5 ppm with freshwater green alga (Selenastrum capricornutum)?
Reply text: 85

Inquiry: Record Cc1ccc(CN(C)Cc2cccc3ccccc23)cc1C : what is its inhibition at 0.5 ppm with freshwater green alga (Selenastrum capricornutum)?
Reply text: 97
